// values below are reported GI50
Test system: A498 renal
assay_comment: NCI tumour cell line growth inhibition, 48 h

Observe how each entry below is paired with its result.
>>> print(df.to_string())
                                   compound  reported_endpoint    result
0  CCC(C)(C)C(=O)O[C@H]1C[C@@H](C)C=C2C=C[C@H](C)[C@H](CC[C@@H]3C[C@@H](O)CC(=O)O3)[C@H]21               GI50  0.156 µM
1  C=C1C(=O)O[C@H]2[C@H]1CC/C(COC(=O)CCCCC(=O)OC/C1=C/CC[C@@]3(C)O[C@H]3[C@H]3OC(=O)C(=C)[C@@H]3CC1)=C\CC[C@@]1(C)O[C@@H]21               GI50     11 µM
2     C[n+]1c(/C=C\c2ccc(Cl)cc2)ccc2ccccc21               GI50   4.02 µM
3  CC(C)=CCC[C@H](C)[C@@H]1CC[C@]2(C)C3CC[C@]4(OC4(C)C)C(CCCO)[C@]3(C)CC[C@@]12C (stereo partly drawn)               GI50   20.1 µM
4  Cn1ccnc1C(=O)/C=C/c1ccc(C(=O)Nc2ccc(Cl)cc2)cc1               GI50  0.661 µM
5  COC(=O)Nc1nc2ccc(Oc3ccc(NC(=O)Nc4cccc(C(=O)O)c4)cc3)cc2[nH]1               GI50   4.98 µM
6  CC1=C(C(=O)Nc2ccc(F)c(Cl)c2)C(c2ccccc2Cl)NC(=S)N1 (stereo not drawn)               GI50   12.9 µM

Now for another entry.
Name the value of GI50 reported for COc1ccc(-c2[nH]c3ccccc3c2C=C(C#N)C#N)cc1 when tested on A498 renal.
0.294 µM
